- Target Desc: α-glucosidase from Saccharomyces cerevisiae (Saccharomyces cerevisiae)
- Sequence (P53341 whole entry): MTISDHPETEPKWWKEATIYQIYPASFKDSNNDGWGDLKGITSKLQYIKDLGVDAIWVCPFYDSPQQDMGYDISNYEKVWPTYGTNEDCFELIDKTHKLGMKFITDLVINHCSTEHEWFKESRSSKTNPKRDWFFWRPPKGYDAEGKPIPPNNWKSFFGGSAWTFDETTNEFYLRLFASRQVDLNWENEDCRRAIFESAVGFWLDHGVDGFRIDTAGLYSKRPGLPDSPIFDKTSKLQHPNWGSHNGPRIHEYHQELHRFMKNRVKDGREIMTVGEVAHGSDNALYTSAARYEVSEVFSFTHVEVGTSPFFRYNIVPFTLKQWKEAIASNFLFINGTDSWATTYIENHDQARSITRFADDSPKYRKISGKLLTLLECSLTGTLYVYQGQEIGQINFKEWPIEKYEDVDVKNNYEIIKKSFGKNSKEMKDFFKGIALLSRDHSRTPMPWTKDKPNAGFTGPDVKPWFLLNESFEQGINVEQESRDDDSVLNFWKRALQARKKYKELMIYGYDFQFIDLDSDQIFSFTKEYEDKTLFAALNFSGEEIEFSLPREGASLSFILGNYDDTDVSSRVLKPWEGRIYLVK
- Method Notes: In vitro α-glucosidase inhibition (p-NPG substrate)
- Run Parameters: read-out: α-Glucosidase Inhibition (%)
Reported Property: inhibition at 4 µg/mL (%)
I only need the number, in %, no unit after it.

Worked cases, inhibition at 4 µg/mL given:
COc1cc(/C=C/CO)cc(OC)c1O[C@@H]1O[C@H](CO)[C@@H](O)[C@H](O)[C@H]1O; 1
C[C@@H]1O[C@@H](OC[C@H]2O[C@@H](Oc3c(-c4ccc(O)c(O)c4)oc4cc(O)cc(O)c4c3=O)[C@H](O)[C@@H](O)[C@@H]2O)[C@H](O)[C@H](O)[C@H]1O; 74
C[C@H]1C(=O)CC[C@@H]2[C@]1(C)CC[C@H]1[C@@]2(C)CC[C@@]2(C)[C@@H]3CC(C)(C)CC[C@]3(C)CC[C@]12C; 1
C[C@@H]1CC[C@]2(C(=O)O[C@@H]3O[C@H](CO)[C@@H](O)[C@H](O)[C@H]3O)CC[C@]3(C)C(=CC[C@@H]4[C@@]5(C)CC[C@H](O)[C@@](C)(CO)[C@@H]5CC[C@]43C)[C@@H]2[C@]1(C)O [Compound 3, pedunculoside]; 3
O=c1c(-c2ccc(O)cc2)coc2cc(O[C@@H]3O[C@H](CO)[C@@H](O)[C@H](O)[C@H]3O)ccc12; 0

For C[C@H]1[C@H](C)CC[C@]2(C(=O)O)CC[C@]3(C)C(=CC[C@@H]4[C@@]5(C)CC[C@H](O)C(C)(C)[C@@H]5CC[C@]43C)[C@H]12 , what is its reported inhibition at 4 µg/mL?
91.5

----------
- Target Desc: UniProtKB P53341
- Method Notes: In vitro α-glucosidase inhibition (p-NPG substrate);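 also: yeast α-glucosidase at 0.2 U/mL with p-nitrophenyl α-D-glucopyranoside substrate in 100 mM potassium phosphate pH 6.8, product read by absorbance at 410 nm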
- Run Parameters: read-out: α-Glucosidase Inhibition (%)
Reported Property: inhibition at 4 µg/mL (%)
I only need the number, in %, no unit after it.

Worked cases, inhibition at 4 µg/mL given:
C[C@@H]1CC[C@]2(C(=O)O)CC[C@]3(C)C(=CC[C@@H]4[C@@]5(C)CC[C@H](O)[C@@](C)(CO)[C@@H]5CC[C@]43C)[C@@H]2[C@]1(C)O; 1
C[C@H]1O[C@H](O[C@H]2[C@H](O)[C@@H](O)[C@@H](O[C@H]3[C@H](O)[C@@H](O)C(O)O[C@@H]3CO)O[C@@H]2CO)[C@H](O)[C@@H](O)[C@@H]1N[C@H]1C=C(CO)[C@@H](O)[C@H](O)[C@H]1O (stereo partly shown) [acarbose, reference compound]; 5
COc1ccc2c(c1)OC[C@H]1c3cc4c(cc3O[C@@H]21)OCO4; 3

For CC(C)=CCC[C@](C)(O[C@@H]1O[C@H](CO[C@@H]2O[C@H](CO)[C@@H](O)[C@H](O)[C@H]2O)[C@@H](O)[C@H](O)[C@H]1O)[C@H]1CC[C@]2(C)[C@@H]1[C@H](O)C[C@@H]1[C@@]3(C)CC[C@H](O[C@@H]4O[C@H](CO)[C@@H](O)[C@H](O)[C@H]4O)C(C)(C)[C@@H]3CC[C@]12C [Compound 6, gypenoside XVII] , what is its reported inhibition at 4 µg/mL?
5

Each recorded value in this set is attributed to paper PMC8840612.
